- experimentalDetails: CHI Log D procedure
- Format: physicochemical
- details: pH 7.4, CHI Log D
The compounds listed here are annotated with their chromatographic logD.
Respond numerically, and do not add a unit to the figure.

// below: answered compounds
CC(=O)N1CCC[C@]12CC=CCCCC1(CCCC=CCCCCCC[C@@](C)(C(=O)N[C@@H](Cc3ccccc3)C(=O)N[C@@H](Cc3csc4ccccc34)C(=O)N[C@@H](CCC(N)=O)C(N)=O)NC(=O)[C@H](C(C)C)NC(=O)[C@H](Cc3ccccc3)NC(=O)[C@H](C)NC(=O)[C@H](C)NC(=O)[C@H](CCC(=O)O)NC(=O)[C@H](CC(=O)O)NC1=O)NC(=O)[C@H](C)NC(=O)[C@H](CC(=O)O)NC2=O (some centres unmarked) [I-144]	2.12
CC(=O)N1CCC[C@]12CC=CCCCC1(CCCC=CCOC(=O)N(C)CCC[C@@](C)(C(=O)N[C@@H](Cc3cccc(F)c3)C(=O)N[C@@H](Cc3csc4ccccc34)C(=O)N[C@@H](CCC(N)=O)C(N)=O)NC(=O)[C@H](CCC(N)=O)NC(=O)[C@H](Cc3cccc(C)c3)NC(=O)[C@H](C)NC(=O)[C@H](C)NC(=O)[C@H](CN(CC(=O)O)CC(F)(F)F)NC(=O)[C@H](CC(=O)O)NC1=O)NC(=O)[C@H](C)NC(=O)[C@H](CC(=O)O)NC2=O (some centres unmarked) [I-405]	1.72
CC(=O)N1CCC[C@]12CC=CCCCC1(CCCC=CCCCCCC[C@@](C)(C(=O)N[C@@H](Cc3cccc(F)c3)C(=O)N[C@@H](Cc3csc4ccccc34)C(=O)N[C@@H](CCC(N)=O)C(N)=O)NC(=O)[C@H](C)NC(=O)[C@H](Cc3ccccc3)NC(=O)[C@H](C)NC(=O)[C@H](C)NC(=O)[C@H](CCC(=O)O)NC(=O)[C@H](CC(=O)O)NC1=O)NC(=O)[C@H](C)NC(=O)[C@H](CC(=O)O)NC2=O (some centres unmarked) [I-372]	2.17
CC(=O)N1CCC[C@]12CC=CCCCC1(CCCC=CCCCOC(=O)N3CC[C@@](C(=O)N[C@@H](Cc4ccccc4Cl)C(=O)N[C@@H](Cc4csc5ccccc45)C(=O)N[C@@H](CCC(N)=O)C(N)=O)(C3)NC(=O)[C@H](CC(N)=O)NC(=O)[C@H](Cc3ccccc3)NC(=O)[C@H](C)NC(=O)[C@H](CO)NC(=O)[C@H](CN(CC(=O)O)CC(F)(F)F)NC(=O)[C@H](CC(=O)O)NC1=O)NC(=O)[C@H](CC(C)(C)C)NC(=O)[C@H](CC(=O)O)NC2=O (some centres unmarked) [I-1009]	2.04

[Q] Recorded chromatographic logD of CC[C@H](C)[C@@H]1NC(=O)[C@H](Cc2ccccc2)NC(=O)[C@]2(CC=CCCCC3(CCCC=CCCCCCC[C@@](C)(C(=O)N[C@@H](Cc4ccccc4)C(=O)N[C@@H](Cc4csc5ccccc45)C(=O)N[C@@H](CCC(N)=O)C(N)=O)NC(=O)[C@H](CCC(N)=O)NC(=O)[C@H](CC(=O)O)NC(=O)[C@H](C)NC(=O)[C@H](C)NC(=O)[C@H](CCC(=O)O)NC(=O)[C@H](CC(=O)O)NC3=O)NC1=O)CCCN2C(C)=O (some centres unmarked) [I-588] , please.
[A] 2.87
